From: ChEMBL document CHEMBL4513216

cytotoxicity at 10 µM reference
# assayMethodText: Toxicity liver stage against HepG2, at 10uM
# Type: cell-based
# Design: test concentration 10 uM, cell line HepG2-A16-CD81EGFP
# particulars: human, HepG2-A16-CD81EGFP cells; read-out: INHIBITION
quantityMeasured: cytotoxicity at 10 µM (%)

- molecule: "Cc1cc(NCCSc2nccn2C)n2nc(C)c(C)c2n1"
  quantityMeasured: "cytotoxicity at 10 µM"
  measuredValue: 9.75
- molecule: "CCOc1ncccc1NC(=O)N1CCc2ccccc2C1"
  quantityMeasured: "cytotoxicity at 10 µM"
  measuredValue: -8.62
- molecule: "CO[C@H]1CN(C(C)C)C[C@@H]1NC(=O)c1cc(COc2ccccc2)[nH]n1"
  quantityMeasured: "cytotoxicity at 10 µM"
  measuredValue: -2.43
- molecule: "Cc1cc(C)n(CC2CCCN2Cc2ncc(C(C)(C)C)o2)n1 (centres undefined)"
  quantityMeasured: "cytotoxicity at 10 µM"
  measuredValue: -1.64
- molecule: "CCc1nc(C2CCCN2C(=O)c2c[nH]c(C)n2)no1 (centres undefined)"
  quantityMeasured: "cytotoxicity at 10 µM"
  measuredValue: -0.674
- molecule: "CCc1ncc2c(n1)CN(Cc1nc3c(F)cccc3[nH]1)CC2"
  quantityMeasured: "cytotoxicity at 10 µM"
  measuredValue: 19
- molecule: "COc1ccc(CN(C(=O)C2CCOCC2)c2ccncc2)cc1"
  quantityMeasured: "cytotoxicity at 10 µM"
  measuredValue: 8.5
- molecule: "Cn1ccc(C(=O)N2CCC(Cc3cccc4ncccc34)CC2)n1"
  quantityMeasured: "cytotoxicity at 10 µM"
  measuredValue: -3.17
- molecule: "Cc1cc(C)n(-c2nc(C(=O)NCCN3CCC(C)CC3)cs2)n1"
  quantityMeasured: "cytotoxicity at 10 µM"
  measuredValue: 10.2
- molecule: "CN(C)C1(CNc2nccc(C3CCCC3)n2)CCOCC1"
  quantityMeasured: "cytotoxicity at 10 µM"
  measuredValue: -1.3
- molecule: "COc1cccc(CNCC2CN(C)CCO2)c1 (centres undefined)"
  quantityMeasured: "cytotoxicity at 10 µM"
  measuredValue: -15.2
- molecule: "c1cncc(-c2nnc(C3(c4ccc5c(c4)OCO5)CCOCC3)o2)c1"
  quantityMeasured: "cytotoxicity at 10 µM"
  measuredValue: 4.02
- molecule: "Cc1cccn2c(=O)cc(CSCC(=O)Nc3nnc(C(C)C)s3)nc12"
  quantityMeasured: "cytotoxicity at 10 µM"
  measuredValue: 0.879
- molecule: "CCc1noc(C2CCCCN2C(=O)c2ccoc2C)n1 (centres undefined)"
  quantityMeasured: "cytotoxicity at 10 µM"
  measuredValue: 12.5
- molecule: "O=C(Cc1ccsc1)N1CCC(O)(CN2CCc3ccccc3C2)C1 (centres undefined)"
  quantityMeasured: "cytotoxicity at 10 µM"
  measuredValue: -7.27
- molecule: "O=C(NC[C@H]1OC[C@@H](NCc2ccccn2)[C@@H]1O)c1ccncc1"
  quantityMeasured: "cytotoxicity at 10 µM"
  measuredValue: -9.77
- molecule: "COCc1nn(C(C)C)c2c1CCN(Cc1ccsc1)C2"
  quantityMeasured: "cytotoxicity at 10 µM"
  measuredValue: -4.51
- molecule: "CC1(C)CN(C(=O)Nc2ccc(Cn3cccn3)cc2)CCO1"
  quantityMeasured: "cytotoxicity at 10 µM"
  measuredValue: 45.1
- molecule: "CN1CCCC1CCn1ccnc1-c1nc(-c2ccccc2)no1 (centres undefined)"
  quantityMeasured: "cytotoxicity at 10 µM"
  measuredValue: -5.35
- molecule: "Cn1c(=O)c2c(n3ncnc13)NC(=O)CC2c1cccc(F)c1 (centres undefined)"
  quantityMeasured: "cytotoxicity at 10 µM"
  measuredValue: 2.05
- molecule: "COCc1ncn(Cc2nc(-c3ccco3)oc2C)n1"
  quantityMeasured: "cytotoxicity at 10 µM"
  measuredValue: -8.53
- molecule: "Cc1ccc(C(=O)N2CCc3c(COCC4CC4)cncc3C2)o1"
  quantityMeasured: "cytotoxicity at 10 µM"
  measuredValue: -74.2
- molecule: "Cc1cc(C(=O)N2CCCCC2c2nc(C)cs2)[nH]n1 (centres undefined)"
  quantityMeasured: "cytotoxicity at 10 µM"
  measuredValue: -8.13
- molecule: "Cn1cccc1C(=O)N1CCC(c2nccn2Cc2ccncc2)CC1"
  quantityMeasured: "cytotoxicity at 10 µM"
  measuredValue: -12
